B1: Caulobacter ParB omega fusion; a variant is named by its letters at X, in order, B8GW30 (parent)
chain: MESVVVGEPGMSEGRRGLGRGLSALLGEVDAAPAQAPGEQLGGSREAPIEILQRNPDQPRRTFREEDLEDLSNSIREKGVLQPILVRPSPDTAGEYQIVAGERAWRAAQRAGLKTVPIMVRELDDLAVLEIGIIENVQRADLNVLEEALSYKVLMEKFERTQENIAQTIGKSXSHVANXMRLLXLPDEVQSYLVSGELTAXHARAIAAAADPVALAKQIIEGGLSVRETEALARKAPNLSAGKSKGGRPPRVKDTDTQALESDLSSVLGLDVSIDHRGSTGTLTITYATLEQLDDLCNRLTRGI

Variants of: B1
experimentNotes: one-hybrid fitness for binding NBS DNA (the Noc-binding site; scaled: cognate 1, non-cognate 0); higher = stronger binding
experimentalContext: with NBS DNA site
Whole data set: some 81,000 sequences, median “one-hybrid fitness for binding NBS DNA” near -0.1, cut for the highest 2% near 0.36. Only a selection was taken, and the highest values are over-represented in it overall.
property: one-hybrid fitness for binding NBS DNA
Reply: number alone, nothing else.

Use the examples below as a reference point.
> print(dat)
    var  value
1  QTER  0.458
2  QIER  0.219
3  EFTN  0.392
4  QSER  0.285
5  QCTY  0.225
6  QCER  0.438
7  RTKY  0.418
8  QHER  0.288

Shifting focus to the variant that follows.
Let me know recorded one-hybrid fitness for binding NBS DNA for `QRTY` , thanks.
0.519
